# assayed_system: RANBP2 RanBD4 (human)
# measurement_protocol: fluorescence polarisation; displacement of a FITC-labelled probe peptide (5 nM in the measurement) from the protein domain (1-2 fold over the probe's KD) by a dilution series of unlabelled peptide; room temperature; 50 mM sodium phosphate pH 7.4; KD calculated from the displacement curve; for KPNA4 ARM one probe for each pocket
readout_type: pKd
Units for pKd: none; it is -log10 of a concentration expressed in mol/L.

Request the reported pKd associated with KYSDDTPLPEPSYKYN (modifications not checked) [DHX38_(260–275), phosphomimetic (E), Q92620 260-275]
3.33
